Data origin: paper PMC5217690

target: TrmDEC (Escherichia coli, UniProt P0A873, Y86L); construct: gene trmD; full-length, N-terminal His tag (pET28b), expressed in E. coli BL21(DE3), tag kept; experiment: ITC; format: binding
Sequence (P0A873 2-255 Y86L): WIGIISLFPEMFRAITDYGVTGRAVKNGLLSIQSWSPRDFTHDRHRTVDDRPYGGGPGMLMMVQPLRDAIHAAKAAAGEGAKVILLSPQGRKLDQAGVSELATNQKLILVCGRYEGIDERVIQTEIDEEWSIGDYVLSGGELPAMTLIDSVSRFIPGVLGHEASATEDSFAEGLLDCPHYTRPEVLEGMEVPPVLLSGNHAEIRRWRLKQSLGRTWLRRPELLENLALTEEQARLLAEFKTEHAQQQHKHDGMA
pKd: −log10 of the molar value.
Reported metric: pKd

> print(dat)
                                   molecule  result
1  C[S+](CC[C@H](N)C(=O)O)C[C@H]1O[C@@H](n2cnc3c(N)ncnc32)[C@H](O)[C@@H]1O (stereo partly shown)    4.16

---

molecular target: TrmDEC (Escherichia coli, UniProt P0A873, Y86F); construct: full-length, N-terminal His tag (pET28b), expressed in E. coli BL21(DE3), tag kept; test: ITC
Sequence (P0A873 2-255 Y86F): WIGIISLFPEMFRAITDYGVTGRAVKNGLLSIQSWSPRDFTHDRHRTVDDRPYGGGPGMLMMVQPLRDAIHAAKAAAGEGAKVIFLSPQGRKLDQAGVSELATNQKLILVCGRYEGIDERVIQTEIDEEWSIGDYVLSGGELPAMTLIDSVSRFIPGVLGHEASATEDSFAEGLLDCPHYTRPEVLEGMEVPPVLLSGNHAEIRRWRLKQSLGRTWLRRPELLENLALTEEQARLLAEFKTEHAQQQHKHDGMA
pKd: −log10 of the molar value.
Reported metric: pKd

> print(dat)
                                   compound                              assay.system  reported.metric  result
1  C[S+](CC[C@H](N)C(=O)O)C[C@H]1O[C@@H](n2cnc3c(N)ncnc32)[C@H](O)[C@@H]1O (stereo partly shown)  TrmDEC (Escherichia coli, UniProt P0A873, Y86F)              pKd    4.55
